- Target under test: Angiotensin II receptor (AT-1) type-1 (Rattus norvegicus, UniProt P29089+P25095)
- Method notes: Displacement of [125I]-angiotensin 2 from angiotensin AT1 receptor in Rattus norvegicus (rat) uterine membranes
Reported property: IC50 (nM)

Consider the following illustrative entries.
Compound | Reported property | Meas value
CCCCc1nn(CCCCCC(=O)O)c(=O)n1Cc1ccc(-c2ccccc2-c2nn[nH]n2)cc1 | IC50 | 17
CCCCc1nn(CC(=O)O)c(=O)n1Cc1ccc(-c2ccccc2-c2nn[nH]n2)cc1 | IC50 | 91
CCCCc1nn(CC(OCCC)c2ccccc2)c(=O)n1Cc1ccc(-c2ccccc2-c2nn[nH]n2)cc1 (centres undefined) | IC50 | 45

1 = CCCCc1nn(CC(OCc2ccccc2)c2ccccc2)c(=O)n1Cc1ccc(-c2ccccc2-c2nn[nH]n2)cc1 (centres undefined)
2 = CCCCc1nn(CCC)c(=O)n1Cc1ccc(-c2ccccc2-c2nn[nH]n2)cc1
3 = CCCCc1nn(CCCC)c(=O)n1Cc1ccc(-c2ccccc2C(=O)O)cc1
Ask: Order the entries by their reported IC50, beginning at the minimum. State the ranking by listing the labels in the requested order.
Result: 2, 3, 1

====

- Target under test: Angiotensin II receptor (AT-1) type-1 (Rattus norvegicus, UniProt P29089+P25095)
- Method notes: Displacement of [125I]-angiotensin 2 from angiotensin AT1 receptor in Rattus norvegicus (rat) uterine membranes
Reported property: IC50 (nM)

Consider the following illustrative entries.
Compound | Reported property | Unit label | Meas value
CCCCc1nn(CC(OC)c2ccccc2)c(=O)n1Cc1ccc(-c2ccccc2-c2nn[nH]n2)cc1 (stereo not given) | IC50 | nM | 12
CCCCc1nn(Cc2ccc3ccccc3c2)c(=O)n1Cc1ccc(-c2ccccc2-c2nn[nH]n2)cc1 | IC50 | nM | 280
CCCCc1nn(CCCCCC(=O)OCC)c(=O)n1Cc1ccc(-c2ccccc2-c2nn[nH]n2)cc1 | IC50 | nM | 9.8

a = CCCCc1nn(CC(=O)OCC)c(=O)n1Cc1ccc(-c2ccccc2-c2nn[nH]n2)cc1
b = CCCCc1nn(CCc2ccccc2)c(=O)n1Cc1ccc(-c2ccccc2-c2nn[nH]n2)cc1
Ask: Between a and b , whose recorded IC50 is greater? Let me know the label of the one you choose.
Result: a
(a: 9 nM, b: 3.1 nM)

====

- Target under test: Angiotensin II receptor (AT-1) type-1 (Rattus norvegicus, UniProt P29089+P25095)
- Method notes: Displacement of [125I]-angiotensin 2 from angiotensin AT1 receptor in Rattus norvegicus (rat) uterine membranes
Reported property: IC50 (µM)

Molecule | Target under test | Unit label | Meas value
CCCCc1nn(CC(OCC)c2ccccc2)c(=O)n1Cc1ccc(-c2ccccc2-c2nn[nH]n2)cc1 (stereo not drawn) | Angiotensin II receptor (AT-1) type-1 (Rattus norvegicus, UniProt P29089+P25095) | µM | 0.015

P = CCCCc1nn(CC(=O)C23CC4CC(CC(C4)C2)C3)c(=O)n1Cc1ccc(-c2ccccc2-c2nn[nH]n2)cc1
Q = CCCCc1nn(C(C)CC)c(=O)n1Cc1ccc(-c2ccccc2-c2nn[nH]n2)cc1 (stereo not drawn)
Ask: Hey, between P and Q which has a smaller measured IC50? Let me know the label of the one you choose.
Result: Q
(Q: 0.01 µM, P: 0.025 µM)
